For each entry below, report its TGI value.
Test system: SF-268 CNS
Experiment notes: NCI tumour cell line growth inhibition, 48 h

For O=[N+]([O-])c1ccc(-c2ccc(/C=N/n3c(-c4ccc(Cl)cc4)n[nH]c3=S)o2)cc1 the molecule record lists TGI as > 100 µM

Briefly, TGI measured for O/N=C1/C(=C/c2ccc(F)cc2)CCCC1C(NO)c1ccc(F)cc1 (centres undefined) : > 100 µM

Entry O=C1CC(=O)N(C2CCCCC2)C(=O)N1c1ccccc1S(=O)(=O)Oc1ccccc1 , TGI reported as > 100 µM

Recorded TGI (molecule S=C(NNC1=NCCCN1)Nc1ccccc1 ): > 100 µM

Looking up CC(NC1=CC(=O)c2ncccc2C1=O)C(O)c1ccccc1 (centres undefined) , I see its TGI listed as 53.4 µM

Briefly, TGI measured for Nc1ccn(C=C=CCO)c(=O)n1 : > 1000 µM

For this molecule ( CNC(=O)OCc1nc(SC(C)C)n(C)c1COC(=O)NC ), measured TGI is > 100 µM

Briefly, TGI measured for O=[N+]([O-])c1ccc(Sc2ncccn2)c([N+](=O)[O-])c1 : 19.6 µM

The measured TGI associated with CCCCCCCCCCCCCCCC(=O)ON1C(=S)NC(C)(c2ccccc2)C1=S (centres undefined) reads > 100 µM

###

System: RXF 393 renal
Experiment notes: NCI tumour cell line growth inhibition, 48 h; in the data active = GI50 below about 0.43 µM; inactive = the rest
Respond using exactly one of the listed classes: active, inactive

Exercise: What is the recorded call for this molecule in the test? COc1cc(-c2cc(C(=O)N3CCN(C(=O)c4ccccc4NCc4ccco4)CC3)nc3cc(-c4ccccc4)nn23)cc(OC)c1OC
Solution: inactive

Exercise: Could you check what this test reported for C[C@@H](c1ccc2nccn2c1)n1nnc2ncc(-c3cnn(C)c3)nc21 ?
Solution: inactive

Exercise: Each molecule tested received a call. Report the one for COc1cccc(NC(=O)c2sc3nc4c(cc3c2N)CCCC4)c1 .
Solution: active

Exercise: Which outcome was entered for the molecule N#C/C(=C\c1c(-c2ccccc2)[nH]c2ccccc12)C(=O)c1ccc(Cl)cc1 in this test?
Solution: inactive

Exercise: Record request — test call for O=[N+]([O-])c1ccc(Sc2ncccn2)c([N+](=O)[O-])c1
Solution: active

Exercise: Hey, what did the test say about OB([O][Hg][c]1ccccc1)[O][Hg][c]1ccccc1 ?
Solution: active

Exercise: What did this assay record as the result for CCOC(=O)c1cnc(SCc2ccc(Cl)c(Cl)c2)nc1N1CC1 ?
Solution: inactive

Exercise: Which outcome did this test record for the molecule COc1cc[nH]c1/C=C1\C(=O)Nc2ccc(F)c(C#C[C@@H](O)[C@@H](N)[C@@H](C)O)c21 ?
Solution: active

###

Tested on: MALME-3M melanoma
Experiment notes: NCI tumour cell line growth inhibition, 48 h
Exercise: state measured TGI for each of the compounds provided.

Item: CC(NC1=CC(=O)c2ncccc2C1=O)C(O)c1ccccc1 (stereo not drawn) | TGI: 4.97 µM

GET /value?item= CNNC1=NS(=O)(=O)c2cc(C)c(Cl)cc2S1 &field=TGI returns > 10 µM

// field: TGI; key: Nc1cccc2c1C(=O)N(C1CCC(=O)NC1=O)C2=O (stereo not drawn) ; value = > 100 µM

###

Exercise: for every item that follows, state its recorded TGI.
System: NCI-H460 lung
Experiment notes: NCI tumour cell line growth inhibition, 48 h

Entry Cn1c(=O)n2n(c1=O)Cc1cccc3cccc(c13)C2 ; TGI = > 100 µM

Recorded result, O=C(Nc1n[nH]c2nc(-c3ccco3)c(Br)cc12)C1CC1 , TGI: > 25 µM

Sure, the documented TGI for C[C@@H](c1ccc2nccn2c1)n1nnc2ncc(-c3cnn(C)c3)nc21 is > 100 µM

Kindly note the recorded TGI for Cc1ccc2c(c1)NC(c1ccc(C(=O)O)cc1)c1cccn1-2 (centres undefined) , which is > 100 µM
